- assay.name: chemical genetic growth profiling, strain panel (AID 1159580);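 also: tested at 20 µM; growth read once vehicle control cultures reached saturation at 30 °C; 1 = growth at the plate median or of vehicle wells; lower values mean less growth of the strain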
- condition.label: S. cerevisiae deletion strains, growth OD, locus YFR010W, strain ubp6, hits give low values
Out of some 5,500 compounds screened, about 2,000 (36%) were called active. Roughly 18% stayed inconclusive and do not appear here. This is one part of the list.
normalized growth values, listed per item
measured.quantity: normalized growth

> print(dat)
                                    compound  measured.quantity  value.reported
 1  C=C1[C@H]2CC[C@@]3(C)[C@H](c4ccoc4)OC(=O)C[C@]13O[C@H]1C[C@H](O)C(C)(C)[C@H](CC(=O)OC)[C@]12C  normalized growth            1.04
 2  Cc1nc2ccccn2c(=O)c1CCN1CCC(C(=O)c2ccc(F)cc2)CC1  normalized growth           0.989
 3  C=C[C@H]1CN2CC[C@H]1C[C@@H]2[C@H](O)c1ccnc2ccccc12  normalized growth           0.999
 4  C=C1C2CC[C@@]3(C)[C@H](c4ccoc4)OC(=O)C[C@]13O[C@H]1CC(=O)C(C)(C)C(CC(=O)OC)[C@@]21C (stereo not given in full)  normalized growth           0.963
 5        CCN(CC)CCOC(=O)C(c1ccccc1)c1ccccc1  normalized growth           0.959
 6  COc1cc([C@H]2Oc3cc([C@H]4Oc5cc(O)cc(O)c5C(=O)[C@@H]4O)ccc3O[C@@H]2CO)ccc1O  normalized growth           0.995
 7   CCCC(C(=O)OCCN(CC)CC)(c1ccccc1)c1ccccc1  normalized growth           0.994
 8  C=C1C2=CC(=O)O[C@@H](c3ccoc3)[C@]2(C)CCC1[C@@]1(C)C=CC(=O)C(C)(C)[C@@H]1CC(=O)OC (stereo not given in full)  normalized growth           0.972
 9                 C/C=C/C(=O)N(CC)c1ccccc1C  normalized growth            1.02
10  COc1c2ccoc2nc2c(OC)c(OCC(O)C(C)(C)O)ccc12 (stereo not given)  normalized growth            1.02

###

- assay.name: chemical genetic growth profiling, strain panel (AID 1159580);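 also: tested at 20 µM; growth read once vehicle control cultures reached saturation at 30 °C; 1 = growth at the plate median or of vehicle wells; lower values mean less growth of the strain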
- condition.label: S. cerevisiae deletion strains, growth OD, locus YER110C, hits give low values
Out of some 5,500 compounds screened, about 2,000 (36%) were called active. Roughly 18% stayed inconclusive and do not appear here. The list shows a part of the results.
Each record is given T if its reported normalized growth is strictly below 1. Records at or above 1 are given F.

> print(dat)
                                   compound  cat
1  COc1cc([C@H]2Oc3cc([C@H]4Oc5cc(O)cc(O)c5C(=O)[C@@H]4O)ccc3O[C@@H]2CO)ccc1O    T
2  CC1CC2C3CC(F)C4=CC(=O)C=CC4(C)C3(F)C(O)CC2(C)C1C(=O)COC(=O)C(C)(C)C (stereo not drawn)    F
3  C[C@H](CCC(=O)O)[C@H]1CCC2C3C(CC[C@@]21C)[C@@]1(C)CC[C@@H](O)C[C@H]1C[C@H]3O (stereo partly drawn)    F
4  COc1cc(C(=O)O)c2c(c1C)OC(=O)c1c(C)cc(O)c(C=O)c1O2    T
